Known pEC50 of a selection of substances
# MEASURED_ON: hNPY2R (Homo sapiens, UniProt P49146)
# Construct: expressed in transfected cells; host or cells: HEK-293 cells carrying a CRE-luciferase reporter gene
# Sequence (P49146 1-381): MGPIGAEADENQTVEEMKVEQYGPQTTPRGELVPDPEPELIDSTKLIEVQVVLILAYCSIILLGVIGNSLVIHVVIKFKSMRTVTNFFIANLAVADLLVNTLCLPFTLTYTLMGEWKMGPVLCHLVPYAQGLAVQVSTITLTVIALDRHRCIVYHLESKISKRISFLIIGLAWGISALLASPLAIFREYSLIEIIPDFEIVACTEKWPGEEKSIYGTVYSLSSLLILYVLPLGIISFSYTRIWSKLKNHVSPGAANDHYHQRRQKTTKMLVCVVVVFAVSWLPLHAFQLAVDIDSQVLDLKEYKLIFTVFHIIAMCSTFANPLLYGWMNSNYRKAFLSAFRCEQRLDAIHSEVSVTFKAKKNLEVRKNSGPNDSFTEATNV
# PROCEDURE_TEXT: hNPY2R CreLuc reporter gene assay in 0.5% and 100% plasma
# Assay type: cell-based
# APPLIED_CONDITIONS: CreLuc reporter gene assay, 100% human plasma; read-out: hNPY2R 100% hP
# Experimental: Example 1: hGLPR/hGIPR/hNPY2R CreLuc Assay in 0.5% and 100% Plasma CHO and HEK-293 recombinant cell lines express a luciferase reporter gene under control of the cAMP responsive element (CRE). […] Following incubation, assay plates are equilibrated to room temperature, followed by addition of 25 μl of Bright-GIo™ Luciferase reagent, incubation at room temperature for 10 minutes and analysis of luminescence (Envision Reader). […]
pEC50: −log10 of the molar value. Starred links: 1 amine or outer side, 2 acyl side, 3 side chain; linkers in the order of their positions; H or OH if unused. Non-standard residues stand in square brackets, D forms with d. Groups on a side chain read outwards from the residue. No end group written: not given here. *: point of attachment. C20 diacid = O=C(O)CCCCCCCCCCCCCCCCCCC(=O)*; C18 diacid = O=C(O)CCCCCCCCCCCCCCCCC(=O)*; γGlu = O=C(O)[C@H](CCC(=O)[*:2])N[*:1]; εLys = N[C@@H](CCCCN[*:1])C(=O)[*:2]; AEEA = NCCOCCOCC(=O)O; Aib = CC(C)(N)C(=O)O; Ahx = NCCCCCC(=O)O
MEASURED_ATTRIBUTE: pEC50

SUBSTANCE	OBSERVED_MEASUREMENT
H-Y[Aib]EGTFTSDYSI[Aib]LEKQAQ[Aib]AFVEWLIK([εLys-γGlu-γGlu-γGlu-γGlu-γGlu-γGlu-C20 diacid])GGPSSGVS[Aib]RHYYNWLTRQRY-NH2 [Compound 38]	7.75
H-Y[Aib]EGTFTSDYSI[Aib]LEKQAQ[Aib]AFVEWLIK([εLys-γGlu-γGlu-γGlu-γGlu-γGlu-γGlu-C20 diacid])GGPSSPQSLRHYYNWLTRQRY-NH2 [Compound 41]	7.46
H-Y[Aib]EGTFTSDYSI[Aib]LEKQAQ[Aib]AFVEWLIK([Ahx-γGlu-γGlu-γGlu-γGlu-γGlu-γGlu-C18 diacid])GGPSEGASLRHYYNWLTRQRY-NH2 [Compound 303]	6.91
H-Y[Aib]EGTFTSDYSI[Aib]LEKQAQ[Aib]EFVEWLIK([εLys-γGlu-γGlu-γGlu-γGlu-γGlu-C18 diacid])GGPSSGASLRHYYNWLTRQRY-NH2 [Compound 159]	7.46
H-Y[Aib]EGTFTSDYSI[Aib]LEEQAQ[Aib]AFVEWLIK([εLys-γGlu-γGlu-γGlu-γGlu-γGlu-γGlu-C20 diacid])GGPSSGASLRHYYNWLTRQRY-NH2 [Compound 116]	7.07
H-Y[Aib]EGTFTSDYSI[Aib]LEKQAQ[Aib]AFVEWLIK([AEEA-AEEA-γGlu-γGlu-γGlu-γGlu-C18 diacid])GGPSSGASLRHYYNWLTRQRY-NH2 [Compound 254]	7.51
Y[Aib]EGTFTSDYSI[Aib]LEKQAE[Aib]AFVQWLIK([AEEA-AEEA-γGlu-γGlu-γGlu-γGlu-C20 diacid])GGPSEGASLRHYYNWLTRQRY-NH2 [Compound 219]	7.36
H-Y[Aib]EGTFTSDYSI[Aib]LEKQAQ[Aib]EFVEWLIK([εLys-γGlu-γGlu-γGlu-γGlu-γGlu-γGlu-γGlu-C20 diacid])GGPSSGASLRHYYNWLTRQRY-NH2 [Compound 88]	7.34
H-Y[Aib]EGTFTSDYSI[Aib]LEKQAQ[Aib]AFVQWLIK([AEEA-AEEA-γGlu-γGlu-γGlu-γGlu-C18 diacid])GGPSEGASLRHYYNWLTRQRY-NH2 [Compound 270]	7.68
H-Y[Aib]EGTFTSDYSI[Aib]LEKEAQ[Aib]KFVEWLIK([εLys-γGlu-γGlu-γGlu-γGlu-γGlu-γGlu-C20 diacid])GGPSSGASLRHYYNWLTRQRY-NH2 [Compound 46]	7.44
